Measured TGI values are reported for all entries that follow.
Tested on: SK-OV-3 ovarian
PROTOCOL_TEXT: NCI tumour cell line growth inhibition, 48 h

Example results:
• CC(=O)NC1C(OC(C)C(=O)NC(C)C(=O)NC(CCC(=O)NCCCCCNc2ccc([N+](=O)[O-])c3[nH]c4ccccc4c(=O)c23)C(N)=O)C(O)C(CO)OC1(C)OCc1ccccc1 (stereo not given) = > 100 µM
• COc1ccc(N=c2oc3ccccc3cc2C(N)=O)cc1 = 47.7 µM
• Fc1ccc(-c2c(-c3ccncc3)nc3n2CCS3)cc1 = > 25 µM
• Nc1nc(Cl)cc(NCC2(O)CCC2)n1 = > 100 µM
• Cc1cnc2n1S(=O)(=O)c1cc(C(=O)Nc3cccc4nsnc34)c(Cl)cc1S2 = > 100 µM
• O=c1c2ccccc2sc2c(NCCCNCCO)nc3ccccc3c12 = 7.31 µM
• OC12c3ccccc3C1CCCCC2N1CCCC1 (stereo not given) = > 100 µM
• Cc1cc2nc(NCCN)n(Cc3ccc(F)c(Cl)c3)c2cc1C = 30.8 µM
• CSc1ccc2c(cc1=O)[C@@H](NC(=O)c1cccc([N+](=O)[O-])c1)CCc1cc(O)c(O)c(O)c1-2 = > 100 µM
• c1csc(-c2nn3c(C45CC6CC(CC(C6)C4)C5)nnc3s2)c1 = > 100 µM

Field: next molecule
Inquiry: Could you share what TGI was measured for `O=C(CN(/C=C/C(=O)C(F)(F)F)c1ccc(Cl)cc1)c1ccc(Cl)cc1` , tested on SK-OV-3 ovarian?
Reply text: 33.5 µM

###

System: SK-MEL-28 melanoma
PROTOCOL_TEXT: NCI tumour cell line growth inhibition, 48 h
MEASURED_PARAMETER: TGI

* C=C(CCCCC)CN1CCCC1C(C)=O (stereo not given) | > 100 µM

Field: next compound
Inquiry: What TGI value was documented for this compound, `O=C1Nc2c(ccc(Cl)c2Cl)/C1=C/c1cc(Br)c(O)c(Br)c1` ?
Reply text: > 100 µM

###

System: T-47D breast
PROTOCOL_TEXT: NCI tumour cell line growth inhibition, 48 h
Measured TGI values are reported for all entries that follow.

Example results:
* Cc1ccc(CC2(C(=O)O)Cc3ccc(C)cc3C2)cc1 (configuration not stated) | > 100 µM
* CC1(C)OC2C(COC(c3ccccc3)(c3ccccc3)c3ccccc3)OC(c3c[nH]c4c(N)ncnc34)C2O1 (configuration not stated) | 17.2 µM
* CC(=O)OC[C@H]1CN(OC(C)=O)C[C@@H](n2cc(C)c(=O)[nH]c2=O)O1 | > 100 µM
* COC(=O)CCC(=O)c1ccc2c(c1)CCC2 | > 100 µM
* COc1ccc(C(=O)C#Cc2cn(C3CC(O)C(CO)O3)c(=O)[nH]c2=O)cc1 (configuration not stated) | 35.4 µM

Inquiry: What TGI value was documented for this compound, CC1=C(C(=O)OC2CC3CCC2(C)C3(C)C)C2Nc3ccccc3N(C)C2O1 (configuration not stated) ?
Reply text: 11.8 µM

Inquiry: What TGI value was documented for this compound, `O=c1ccc2ccc(OP(=O)(O)O)cc2o1` ?
Reply text: > 100 µM

Inquiry: What TGI value was documented for this compound, CC1=NN(c2cccc(Cl)c2)C2(SCC(=O)N2c2nc3ccccc3s2)C1=CC=Cc1ccccc1 (configuration not stated) ?
Reply text: > 100 µM

Inquiry: What TGI value was documented for this compound, `CC1=NN(c2nc(N)nc(CN3CCOCC3)n2)C(C)(C)C1` ?
Reply text: > 100 µM

Inquiry: What TGI value was documented for this compound, `Cc1ccc(O)c(Cc2nc3ccccc3nc2-c2cccc(Cl)c2)c1` ?
Reply text: > 100 µM
